- target-of-assay: Serine/threonine-protein kinase ULK1 (Homo sapiens)
- test-description: Induction of ULK1-mediated autophagy in human SH-SY5Y cells at 1 uM after 6 hrs by MDC-staining based flow cytometric analysis relative to control
- Format: cell-based
Strictly below 20% in Activity: yes (1). Otherwise: no (0).

# compound, class
rows = [
    ("COc1ccc(CCNC(=O)N[C@@H](C(=O)Nc2cccc3ccccc23)c2ccccc2)cc1OC", "no (0)"),
    ("C[C@@H](NC(=O)[C@H](NC(=O)Nc1ccccc1Cl)c1ccccc1)c1ccccc1", "yes (1)"),
    ("CN1CCN(CC(OC(=O)c2ccccc2F)c2ccccc2)CC1 (stereo not given)", "yes (1)"),
    ("CN1CCN(CC(OC(=O)c2ccccc2)c2ccccc2)CC1 (stereo not given)", "yes (1)"),
    ("COc1ccc(N2CCN(CC(OC(=O)c3ccc(F)cc3)c3ccccc3)CC2)cc1 (stereo not given)", "yes (1)"),
    ("COc1ccc(NC(=O)N[C@@H](C(=O)Nc2ccccc2C)c2ccccc2)cc1", "no (0)"),
    ("COc1ccc(N2CCN(CC(OC(=O)c3ccccc3F)c3ccccc3)CC2)cc1 (stereo not given)", "yes (1)"),
    ("COc1ccc(CCNC(=S)N[C@@H](C(=O)Nc2ccccc2)c2ccccc2)cc1OC", "no (0)"),
    ("O=C(Nc1cc(F)ccc1F)[C@H](NC(=S)Nc1ccccc1)c1ccccc1", "no (0)"),
    ("Cc1cccc(C)c1NC(=O)N[C@@H](C(=O)Nc1cccc(Br)c1)c1ccccc1", "no (0)"),
]
